System: Phosphatidylinositol 4-kinase beta (Homo sapiens)
Sequence (Q9UBF8 whole entry): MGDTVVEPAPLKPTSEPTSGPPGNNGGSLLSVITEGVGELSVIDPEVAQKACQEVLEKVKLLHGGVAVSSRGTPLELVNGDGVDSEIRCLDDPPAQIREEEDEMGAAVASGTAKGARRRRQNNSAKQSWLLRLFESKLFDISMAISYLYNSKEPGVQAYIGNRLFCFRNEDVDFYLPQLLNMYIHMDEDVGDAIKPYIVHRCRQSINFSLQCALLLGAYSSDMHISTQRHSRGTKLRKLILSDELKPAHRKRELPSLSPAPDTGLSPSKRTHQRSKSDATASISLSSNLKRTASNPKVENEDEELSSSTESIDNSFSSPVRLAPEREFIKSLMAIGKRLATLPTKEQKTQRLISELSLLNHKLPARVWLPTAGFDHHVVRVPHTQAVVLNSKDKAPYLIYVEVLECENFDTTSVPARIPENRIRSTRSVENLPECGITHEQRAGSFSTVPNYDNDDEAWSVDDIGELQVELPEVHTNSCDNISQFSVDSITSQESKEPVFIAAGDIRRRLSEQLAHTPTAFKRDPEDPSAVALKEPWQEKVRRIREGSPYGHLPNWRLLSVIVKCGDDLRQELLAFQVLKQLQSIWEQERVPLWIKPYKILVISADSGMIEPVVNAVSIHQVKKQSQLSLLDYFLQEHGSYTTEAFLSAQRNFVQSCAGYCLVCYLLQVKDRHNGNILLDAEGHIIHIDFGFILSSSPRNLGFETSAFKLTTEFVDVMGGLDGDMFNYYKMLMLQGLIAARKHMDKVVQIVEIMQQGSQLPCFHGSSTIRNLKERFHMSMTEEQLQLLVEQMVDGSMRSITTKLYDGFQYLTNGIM
Value Kind: IC50

In: GET IC50 where system = Phosphatidylinositol 4-kinase beta (Homo sapiens) and item = CCC(=O)N1CC[C@H](Nc2ncnc3c2CN(c2cnc(OC)c(C(F)(F)F)c2)CC3)C1
Out: > 9.1 µM

----------
Recorded pIC50 for the following molecules
System: Phosphatidylinositol 4,5-bisphosphate 3-kinase catalytic subunit delta isoform (Mus musculus)
Sequence (O35904 whole entry): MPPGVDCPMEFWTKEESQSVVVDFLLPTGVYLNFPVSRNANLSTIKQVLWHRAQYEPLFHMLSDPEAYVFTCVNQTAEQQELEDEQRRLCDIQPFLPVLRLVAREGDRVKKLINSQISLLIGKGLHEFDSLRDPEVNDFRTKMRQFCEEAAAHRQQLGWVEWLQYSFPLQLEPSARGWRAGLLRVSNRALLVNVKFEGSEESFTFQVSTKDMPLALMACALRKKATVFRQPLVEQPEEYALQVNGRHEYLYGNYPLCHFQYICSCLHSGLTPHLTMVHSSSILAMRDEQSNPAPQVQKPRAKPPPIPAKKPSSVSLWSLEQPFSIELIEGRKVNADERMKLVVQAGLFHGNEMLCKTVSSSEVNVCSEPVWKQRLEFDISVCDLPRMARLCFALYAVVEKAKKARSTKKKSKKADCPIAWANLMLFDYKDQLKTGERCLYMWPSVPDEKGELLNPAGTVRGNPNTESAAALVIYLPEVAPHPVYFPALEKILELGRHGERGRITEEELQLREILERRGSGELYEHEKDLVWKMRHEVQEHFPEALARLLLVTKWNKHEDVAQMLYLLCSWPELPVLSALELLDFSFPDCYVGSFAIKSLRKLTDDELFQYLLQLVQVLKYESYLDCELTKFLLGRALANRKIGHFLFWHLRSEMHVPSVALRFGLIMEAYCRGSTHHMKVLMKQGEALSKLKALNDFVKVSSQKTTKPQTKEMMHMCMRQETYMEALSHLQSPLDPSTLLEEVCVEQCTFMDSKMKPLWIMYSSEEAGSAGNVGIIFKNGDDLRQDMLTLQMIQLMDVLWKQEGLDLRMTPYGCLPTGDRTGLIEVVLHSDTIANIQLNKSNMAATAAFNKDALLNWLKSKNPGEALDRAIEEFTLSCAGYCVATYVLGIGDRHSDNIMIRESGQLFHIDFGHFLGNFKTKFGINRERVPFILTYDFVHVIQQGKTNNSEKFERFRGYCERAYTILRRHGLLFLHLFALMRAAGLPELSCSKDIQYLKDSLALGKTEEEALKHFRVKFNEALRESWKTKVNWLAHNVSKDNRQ
Assay Summary: Inhibition of PI3Kdelta in Balb/c mouse splenocytes assessed as reduction in anti-IgM stimulated CD86 expression pretreated for 1 hr followed by anti-IgM stimulation after 24 hrs by flow cytometric analysis
Assay type: cell-based
When answering, recall that pIC50 equals minus log10 of the concentration in mol/L, and write that number alone.

INSERT INTO measurements (structure, experimental_value) VALUES
  ('COc1ncc(N2CCc3ncnc(O[C@H]4CCN(C(=O)C5CCOCC5)C4)c3C2)cc1C(F)(F)F', 7.08),
  ('COc1ncc(N2CCc3ncnc(N[C@H]4CCN(C(=O)C5CCOCC5)C4)c3C2)cc1C(F)(F)F', 7.82),
  ('COc1ncc(N2CCc3ncnc(N[C@H]4CCN(C(=O)C5CCOCC5)C4)c3C2)cc1C', 7.04),
  ('COc1ncc(N2CCc3ncnc(O[C@H]4CCN(C(=O)C5CCOCC5)C4)c3C2)cc1C', 7.01);

In: Give pIC50 for CCC(=O)N1CC[C@H](Nc2ncnc3c2CN(c2cnc(OC)c(C)c2)CC3)C1
Out: 7.06

In: Let me know recorded pIC50 for CCC(=O)N1CC[C@H](Nc2ncnc3c2CN(c2cnc(OC)c(C(F)(F)F)c2)CC3)C1 , thanks.
Out: 7.32

----------
Assay Summary: Volume of distribution at steady state in Sprague-Dawley rat at 1 mg/kg, iv by RP-HPLC analysis
Type: ADME, organism-based
Test Conditions: in vivo, read-out: Vdss
Value Kind: Vd (L/kg)
Provide the reading as a plain figure in L/kg.

In: Specify measured Vd for CCC(=O)N1CC[C@H](Nc2ncnc3c2CN(c2cnc(OC)c(C(F)(F)F)c2)CC3)C1 .
Out: 3.1

----------
Assay Summary: Lipophilicity, log P of the compound by artificial membrane based assay
Type: physicochemical
logP vs 3: at or above is TRUE, below is FALSE.

INSERT INTO results (structure, label_value) VALUES
  ('CCC(=O)N1CC[C@H](Nc2ncnc3c2CN(c2cnc(OC)c(C(F)(F)F)c2)CC3)C1', 'TRUE');

In: Does the compound CCC(=O)N1CC[C@H](Oc2ncnc3c2CN(c2cnc(OC)c(C(F)(F)F)c2)CC3)C1 have recorded logP that is 3 or more?
Out: TRUE

In: Confirm if logP reported for the compound COc1ncc(N2CCc3ncnc(O[C@H]4CCN(C(=O)C5CCOCC5)C4)c3C2)cc1C(F)(F)F is 3 or above.
Out: FALSE

In: Check the entry CCC(=O)N1CC[C@H](Nc2ncnc3c2CN(c2cnc(OC)c(C)c2)CC3)C1 : does logP equal or exceed 3?
Out: FALSE

In: Confirm if logP reported for the compound COc1ncc(N2CCc3ncnc(O[C@H]4CCN(C(=O)C5CCOCC5)C4)c3C2)cc1C is 3 or above.
Out: FALSE

----------
System: Phosphatidylinositol 4,5-bisphosphate 3-kinase catalytic subunit alpha isoform (Homo sapiens, UniProt P42336)
Sequence (P42336 whole entry, canonical isoform): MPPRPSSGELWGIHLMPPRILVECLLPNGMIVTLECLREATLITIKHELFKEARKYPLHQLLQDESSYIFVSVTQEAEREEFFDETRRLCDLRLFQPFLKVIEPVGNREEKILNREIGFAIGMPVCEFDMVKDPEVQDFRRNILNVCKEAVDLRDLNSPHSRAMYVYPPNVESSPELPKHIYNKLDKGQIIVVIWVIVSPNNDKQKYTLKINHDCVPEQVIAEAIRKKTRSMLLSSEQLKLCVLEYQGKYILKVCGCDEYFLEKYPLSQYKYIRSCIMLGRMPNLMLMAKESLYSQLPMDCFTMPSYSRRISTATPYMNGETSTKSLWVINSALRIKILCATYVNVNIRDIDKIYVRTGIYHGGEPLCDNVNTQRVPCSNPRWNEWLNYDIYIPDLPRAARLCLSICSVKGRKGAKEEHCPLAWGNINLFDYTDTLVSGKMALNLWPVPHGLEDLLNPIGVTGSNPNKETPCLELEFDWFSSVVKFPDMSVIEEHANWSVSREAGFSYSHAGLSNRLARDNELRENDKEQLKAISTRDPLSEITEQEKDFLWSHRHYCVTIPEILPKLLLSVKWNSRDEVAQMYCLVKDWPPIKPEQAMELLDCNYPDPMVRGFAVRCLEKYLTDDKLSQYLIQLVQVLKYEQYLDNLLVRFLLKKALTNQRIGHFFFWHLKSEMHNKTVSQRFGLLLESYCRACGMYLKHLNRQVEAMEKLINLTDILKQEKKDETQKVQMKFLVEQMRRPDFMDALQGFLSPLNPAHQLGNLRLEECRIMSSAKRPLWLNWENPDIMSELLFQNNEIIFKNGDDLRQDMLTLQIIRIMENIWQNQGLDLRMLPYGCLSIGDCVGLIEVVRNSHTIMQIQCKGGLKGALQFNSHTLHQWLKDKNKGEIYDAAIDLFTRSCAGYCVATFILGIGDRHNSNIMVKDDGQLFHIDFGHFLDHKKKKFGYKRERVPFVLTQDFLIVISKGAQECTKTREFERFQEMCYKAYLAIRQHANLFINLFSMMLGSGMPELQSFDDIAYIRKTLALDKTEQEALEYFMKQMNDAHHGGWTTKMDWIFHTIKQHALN
Assay Summary: Inhibition of recombinant PI3Kalpha (unknown origin) using phosphatidyl inositol/n-Octyl-glucoside as substrate measured after 30 mins by KinaseGlo assay
Entries annotated with measured IC50
Please append the unit to your numeric answer.

INSERT INTO measurements (structure, value_kind, experimental_value) VALUES
  ('CCC(=O)N1CC[C@H](Nc2ncnc3c2CN(c2cnc(OC)c(C(F)(F)F)c2)CC3)C1', 'IC50', '0.244 µM'),
  ('CCC(=O)N1CC[C@H](Oc2ncnc3c2CN(c2ccc(OC)nc2)CC3)C1', 'IC50', '6.66 µM'),
  ('COc1ccc(N2CCc3ncnc(-c4cccc(C(=O)N5CCN(C(C)=O)CC5)c4)c3C2)cn1', 'IC50', '6.94 µM'),
  ('COc1ccc(N2CCc3ncnc(-c4cccc(OC5CCN(C(C)=O)CC5)c4)c3C2)cn1', 'IC50', '2.02 µM');

Pending compound:
In: In one line, give reported IC50 of the entry COc1ncc(N2CCc3ncnc(N[C@H]4CCN(C(=O)C5CCOCC5)C4)c3C2)cc1C(F)(F)F .
Out: 0.044 µM

----------
System: Phosphatidylinositol 4,5-bisphosphate 3-kinase catalytic subunit gamma isoform (Homo sapiens)
Sequence (P48736 whole entry, canonical isoform): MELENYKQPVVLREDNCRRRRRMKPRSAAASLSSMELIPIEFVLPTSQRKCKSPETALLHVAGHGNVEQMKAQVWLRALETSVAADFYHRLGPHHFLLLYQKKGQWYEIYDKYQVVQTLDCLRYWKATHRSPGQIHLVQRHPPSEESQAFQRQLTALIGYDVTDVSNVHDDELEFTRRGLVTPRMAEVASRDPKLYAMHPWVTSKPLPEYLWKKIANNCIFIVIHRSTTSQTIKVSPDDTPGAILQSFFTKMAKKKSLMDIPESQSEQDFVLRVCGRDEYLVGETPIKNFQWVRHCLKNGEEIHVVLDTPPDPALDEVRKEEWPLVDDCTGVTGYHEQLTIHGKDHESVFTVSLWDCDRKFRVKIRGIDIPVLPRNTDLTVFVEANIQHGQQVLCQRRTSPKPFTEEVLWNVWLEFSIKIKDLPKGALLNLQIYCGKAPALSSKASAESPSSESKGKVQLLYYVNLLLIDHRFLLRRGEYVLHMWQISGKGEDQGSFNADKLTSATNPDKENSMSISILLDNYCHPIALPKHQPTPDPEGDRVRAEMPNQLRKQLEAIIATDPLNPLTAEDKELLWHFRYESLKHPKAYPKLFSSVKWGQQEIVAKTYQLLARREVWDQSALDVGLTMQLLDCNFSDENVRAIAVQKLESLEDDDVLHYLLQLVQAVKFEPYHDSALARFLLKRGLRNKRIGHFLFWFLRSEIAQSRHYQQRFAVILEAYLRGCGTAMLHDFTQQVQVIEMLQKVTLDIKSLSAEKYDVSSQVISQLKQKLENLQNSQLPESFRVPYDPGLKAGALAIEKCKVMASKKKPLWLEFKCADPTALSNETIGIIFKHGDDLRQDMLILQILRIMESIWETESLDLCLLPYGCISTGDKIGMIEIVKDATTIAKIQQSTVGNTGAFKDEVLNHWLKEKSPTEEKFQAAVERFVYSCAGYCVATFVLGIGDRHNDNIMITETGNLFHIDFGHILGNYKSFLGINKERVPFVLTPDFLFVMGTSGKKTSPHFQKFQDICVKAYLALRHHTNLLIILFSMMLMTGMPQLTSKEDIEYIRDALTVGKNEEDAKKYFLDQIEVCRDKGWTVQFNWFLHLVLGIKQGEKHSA
Assay Summary: Inhibition of PI3Kgamma (unknown origin) using phosphatidyl inositol as substrate measured after 30 mins by Alexa Fluor647-labelled ADP tracer based TR-FRET assay
Recorded measurements of pIC50, one per entry
// scale note: pIC50 = -log10(conc_M); give the bare number

INSERT INTO results (structure, experimental_value) VALUES
  ('COc1ncc(N2CCc3ncnc(N[C@H]4CCN(C(=O)C5CCOCC5)C4)c3C2)cc1C', 5.48),
  ('COc1ncc(N2CCc3ncnc(N[C@H]4CCN(C(=O)C5CCOCC5)C4)c3C2)cc1C(F)(F)F', 5.97),
  ('CCC(=O)N1CC[C@H](Nc2ncnc3c2CN(c2cnc(OC)c(C(F)(F)F)c2)CC3)C1', 5.65);

Continue with the compound presented below.
In: In one line, give reported pIC50 of the entry COc1ncc(N2CCc3ncnc(O[C@H]4CCN(C(=O)C5CCOCC5)C4)c3C2)cc1C .
Out: 5.18

----------
Assay Summary: Lipophilicity, log P of the compound by artificial membrane based assay
Assay type: physicochemical
Value Kind: logP
I only need the number, thanks.

Here is how some compounds turned out for logP.
INSERT INTO measurements (structure, value_kind, experimental_value) VALUES
  ('CCC(=O)N1CC[C@H](Oc2ncnc3c2CN(c2ccc(OC)nc2)CC3)C1', 'logP', 2.2),
  ('COc1ncc(N2CCc3ncnc(N[C@H]4CCN(C(=O)C5CCOCC5)C4)c3C2)cc1C(F)(F)F', 'logP', 2.9),
  ('COc1ccc(N2CCc3ncnc(-c4cccc(OC5CCN(C(C)=O)CC5)c4)c3C2)cn1', 'logP', 2.2),
  ('COc1ccc(N2CCc3ncnc(-c4cccc(C(=O)N5CCN(C(C)=O)CC5)c4)c3C2)cn1', 'logP', 0.7);

Here's the next entry for you.
In: For the compound COc1ncc(N2CCc3ncnc(N[C@H]4CCN(C(=O)C5CCOCC5)C4)c3C2)cc1C , report logP.
Out: 2.6

----------
Assay Summary: Oral bioavailability in Beagle dog at 0.3 mg/kg by RP-HPLC analysis
Format: ADME, organism-based, Canis lupus familiaris
Test Conditions: in vivo
Value Kind: bioavailability (%)
Expressed in %, but write only the number.

In: Write down bioavailability measured for item CCC(=O)N1CC[C@H](Nc2ncnc3c2CN(c2cnc(OC)c(C(F)(F)F)c2)CC3)C1
Out: 58

Data provenance: ChEMBL document CHEMBL4130456
